Molecular target: bovine trypsin (bovine, UniProt P00760 24-246)
Sequence (P00760 24-246): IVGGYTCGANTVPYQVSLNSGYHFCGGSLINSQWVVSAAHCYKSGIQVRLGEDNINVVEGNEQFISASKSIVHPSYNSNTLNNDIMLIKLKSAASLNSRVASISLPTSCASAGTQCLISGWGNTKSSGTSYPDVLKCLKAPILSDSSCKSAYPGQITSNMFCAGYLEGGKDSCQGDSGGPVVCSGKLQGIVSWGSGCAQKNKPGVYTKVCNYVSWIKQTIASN
Experiment: trypsin inhibition, BApNA substrate
Bridge positions count the residues as written; N and C are the ends. Ends that are not written are not given here.
With a cut-off of 900 nM, any IC50 strictly below it is called true; any IC50 meeting it or above is called false.

Examples with answers:
CGTATKSIPPICN (disulfide 1-12 (inferred)) [BT24]	false
CVRATKSIPPICF (disulfide 1-12 (inferred)) [BT71]	true
CGRATRSAPPICF (disulfide 1-12 (inferred)) [BT21]	false
CARATKSIPPICF (disulfide 1-12 (inferred)) [BT67]	true

In the following, a different binder is considered.
Report whether reported IC50 is lower than 900 nM (strictly) for CGRATRAIPPICF (disulfide 1-12 (inferred)) [BT22]
false
